# System: HCV genotype 1b replicon (2209-23 cells, Huh7)
# method: HCV replicon assay (Renilla luciferase reporter)
# Format: cell-based
# runParameters: Hepatitis C virus, Huh-7, 72 h, Huh7-derived cell line 2209-23, three days incubation, luciferase readout
Kindly state pIC50 for each of the entries shown.
Quick note: pIC50 means taking -log10 of the concentration in moles per liter.

Prompt line: Give the observed pIC50 of COC(=O)N[C@H](C(=O)N1CCC[C@H]1C(=O)Nc1ccc2cc(-c3ccc(-c4cnc([C@@H]5CCCN5C(=O)[C@@H](NC(=O)OC)C(C)C)[nH]4)cc3)ccc2n1)C(C)C for HCV genotype 1b replicon (2209-23 cells, Huh7).
Response line: 9.82

Prompt line: Give the observed pIC50 of COC(=O)N[C@H](C(=O)N1CCC[C@H]1C(=O)Nc1ccc2nc(-c3ccc(-c4cnc([C@@H]5CCCN5C(=O)[C@@H](NC(=O)OC)C(C)C)[nH]4)cc3)ccc2c1)C(C)C for HCV genotype 1b replicon (2209-23 cells, Huh7).
Response line: 9.38

Prompt line: Give the observed pIC50 of COC(=O)N[C@H](C(=O)N1CCC[C@H]1c1ncc(-c2ccc(-c3ccc4cc(NC(=O)[C@@H]5CCCN5C(=O)CC(C)C)ccc4n3)cc2)[nH]1)C(C)C for HCV genotype 1b replicon (2209-23 cells, Huh7).
Response line: 8.77

Prompt line: Give the observed pIC50 of COC(=O)N[C@H](C(=O)N1CCC[C@H]1c1ncc(-c2ccc(-c3ccc4cc(NC(=O)[C@@H]5CCCN5C(C)=O)ccc4n3)cc2)[nH]1)C(C)C for HCV genotype 1b replicon (2209-23 cells, Huh7).
Response line: 9.20

Prompt line: Give the observed pIC50 of COC(=O)N[C@H](C(=O)N1CCC[C@H]1C(=O)Nc1ccc2cc(-c3ccc(-c4cnc([C@@H]5CCCN5C(=O)[C@@H](NC(=O)OC)C(C)C)[nH]4)cc3)ccc2c1)C(C)C for HCV genotype 1b replicon (2209-23 cells, Huh7).
Response line: 10.39

Prompt line: Give the observed pIC50 of COC(=O)N[C@H](C(=O)N1CCC[C@H]1C(=O)NC1CCc2cc(-c3ccc(-c4cnc([C@@H]5CCCN5C(=O)[C@@H](NC(=O)OC)C(C)C)[nH]4)cc3)ccc2C1)C(C)C (some centres unmarked) for HCV genotype 1b replicon (2209-23 cells, Huh7).
Response line: 8.92

Prompt line: Give the observed pIC50 of COC(=O)N[C@H](C(=O)N1CCC[C@H]1C(=O)Nc1nccc2cc(-c3ccc(-c4cnc([C@@H]5CCCN5C(=O)[C@@H](NC(=O)OC)C(C)C)[nH]4)cc3)ccc12)C(C)C for HCV genotype 1b replicon (2209-23 cells, Huh7).
Response line: 7.86

Prompt line: Give the observed pIC50 of COC(=O)N[C@H](C(=O)N1CCC[C@H]1C(=O)N1CCc2cc(-c3ccc(-c4cnc([C@@H]5CCCN5C(=O)[C@@H](NC(=O)OC)C(C)C)[nH]4)cc3)ccc2C1)C(C)C for HCV genotype 1b replicon (2209-23 cells, Huh7).
Response line: 8.69

Prompt line: Give the observed pIC50 of COC(=O)N[C@H](C(=O)N1CCC[C@H]1C(=O)Nc1cccc2cc(-c3ccc(-c4cnc([C@@H]5CCCN5C(=O)[C@@H](NC(=O)OC)C(C)C)[nH]4)cc3)ccc12)C(C)C for HCV genotype 1b replicon (2209-23 cells, Huh7).
Response line: 9.70

Prompt line: Give the observed pIC50 of COC(=O)N[C@H](C(=O)N1CCC[C@H]1C(=O)NC1CCc2cc(-c3ccc(-c4cnc([C@@H]5CCCN5C(=O)[C@@H](NC(=O)OC)C(C)C)[nH]4)cc3)ccc21)C(C)C (some centres unmarked) for HCV genotype 1b replicon (2209-23 cells, Huh7).
Response line: 9.51

Prompt line: Give the observed pIC50 of COC(=O)N[C@H](C(=O)N1CCC[C@H]1C(=O)Nc1nc2cc(-c3ccc(-c4cnc([C@@H]5CCCN5C(=O)[C@@H](NC(=O)OC)C(C)C)[nH]4)cc3)ccc2[nH]1)C(C)C for HCV genotype 1b replicon (2209-23 cells, Huh7).
Response line: 9.43

* * *

# Test system: HCV genotype 1b replicon (2209-23 cells, Huh7)
# method: HCV replicon assay (Renilla luciferase reporter)
# Assay type: cell-based
# runParameters: Hepatitis C virus, Huh-7, 72 h, Huh7-derived cell line 2209-23, three days incubation, luciferase readout
Simple rule here: IC50 less than 1 nM is 1.0, otherwise 0.0.

Prompt line: Determine whether this compound shows IC50 lower than 1 nM (ties excluded): COC(=O)N[C@H](C(=O)N1CCC[C@H]1c1ncc(-c2ccc(-c3ccc4cc(NC(=O)[C@@H]5CCCN5C(=O)c5ccccc5)ccc4n3)cc2)[nH]1)C(C)C [I-15]
Response line: 0.0

Prompt line: Determine whether this compound shows IC50 lower than 1 nM (ties excluded): COC(=O)N[C@H](C(=O)N1CCC[C@H]1C(=O)NC1CCCc2cc(-c3ccc(-c4cnc([C@@H]5CCCN5C(=O)[C@@H](NC(=O)OC)C(C)C)[nH]4)cc3)ccc21)C(C)C (some centres unmarked) [I-2]
Response line: 0.0

Prompt line: Determine whether this compound shows IC50 lower than 1 nM (ties excluded): COC(=O)N[C@H](C(=O)N1CCC[C@H]1C(=O)NCc1ccc(-c2ccc(-c3cnc([C@@H]4CCCN4C(=O)[C@@H](NC(=O)OC)C(C)C)[nH]3)cc2)cc1)C(C)C [I-16]
Response line: 0.0

Prompt line: Determine whether this compound shows IC50 lower than 1 nM (ties excluded): COC(=O)N[C@H](C(=O)N1CCC[C@H]1C(=O)NC1Cc2ccc(-c3ccc(-c4cnc([C@@H]5CCCN5C(=O)[C@@H](NC(=O)OC)C(C)C)[nH]4)cc3)cc2C1)C(C)C (some centres unmarked) [I-9]
Response line: 1.0

Prompt line: Determine whether this compound shows IC50 lower than 1 nM (ties excluded): COC(=O)N[C@H](C(=O)N1CCC[C@H]1c1ncc(-c2ccc(-c3ccc4cc(NC(=O)[C@@H]5CCCN5C(=O)C(C)C)ccc4n3)cc2)[nH]1)C(C)C [I-13]
Response line: 0.0

Values compiled from patent US20120039847A1.
